- PROTOCOL TEXT: NCI Yeast Anticancer Drug Screen. Data for the sgs1 mgt1 strain (AID 161);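 note: 0% = growth of cultures given vehicle only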
- ASSAY SETUP: S. cerevisiae sgs1 mgt1 strain, at 50.0 µM (retest, dose inferred, filed as 5.0)
About 79,000 compounds went through this panel and 15% of them were active in at least one assay; those are over-represented in the sample as a whole. The source made the active and inactive calls. Cut-off read from the data, not from the text of the source: active = growth inhibition above about 70%; inactive = the rest.
Outcome (select one): label 1 = active, label 0 = inactive

The following compounds have reported results that may help.
Cc1cc(N(CCCl)CCCl)ccc1CN1CCCN(Cc2ccc(N(CCCl)CCCl)cc2C)C1c1ccc(N(CCCl)CCCl)cc1    label 1
CC12CCCCC1C(=O)C2(Cl)Cl (stereo not drawn)    label 0
CC1=C[C@H]2O[C@H]3C[C@H]4OC(=O)/C=C\C=C\C(=O)OCC[C@@H](C)C(O)C(=O)OC[C@@]2(CC1)[C@@]4(C)[C@]31CO1 (stereo partly drawn)    label 1
COC12c3c(C)cc(O)c4c(=O)occ(c34)C(=O)C1C13COC(=O)c4c(O)cc(C)c(c41)C(=O)C2C3OC(C)=O (stereo not drawn)    label 1
CC[S+](C)c1ccc(-c2c3nc(c(-c4ccc([S+](C)CC)cc4)c4ccc([nH]4)c(-c4ccc([S+](C)CC)cc4)c4nc(c(-c5ccc([S+](C)CC)cc5)c5ccc2[nH]5)C=C4)C=C3)cc1 (stereo not drawn)    label 1
Cc1ccc(S(=O)(=O)/N=[Se](\C)c2ccccc2)cc1 (stereo not drawn)    label 1

**Query** Outcome? `CCO[C@@H]([CH2][Hg][Cl])[C@](C)([CH2][Hg][Cl])OCC`
**Result** label 1

**Query** Outcome? `O=[N+]([O-])/C=C/c1ccccc1Cl`
**Result** label 1

====

- PROTOCOL TEXT: NCI Yeast Anticancer Drug Screen. Data for the bub3 strain (AID 167)
- ASSAY SETUP: S. cerevisiae bub3 mutant strain, at 50.0 µM, hits give high values
The panel holds about 79,000 compounds, 15% with a hit somewhere; the sample as a whole holds those more often.
ENDPOINT NAME: growth inhibition (%)
Answers are plain numbers, in %.

CCOP(=O)(N=S=O)OCC    7.95

Batch lookup, growth inhibition per entry.
1. CCC[CH2][Sn]([CH2]CCC)([CH2]CCC)[CH2]CC(=O)OC
2. O=C(O)CN(CCN(CC(=O)O)CC(=O)O)CC(=O)O.[Cl][Pd][Cl]
3. CC(C)CCC[C@@H](C)[C@H]1CC[C@H]2[C@@H]3CC=C4C[C@@H](OC(=O)F)CC[C@]4(C)[C@H]3CC[C@]12C
4. CC[C@@H](C)[C@@H]1NC(=O)C(NC(=O)C(CC(C)C)N(C)C(=O)C2CCCN2C(=O)C(C)O)C(C)OC(=O)C(Cc2ccc(OC)cc2)N(C)C(=O)C2CCCN2C(=O)C(CC(C)C)NC(=O)C(C)C(=O)C(C(C)C)OC(=O)C[C@H]1O (stereo partly specified)
5. CCOC(=O)C1=C(C)/C(=C/c2[n-]c(C)c(C(=O)OCC)c2C)N=C1C.CCOC(=O)C1=C(C)/C(=C/c2[n-]c(C)c(C(=O)OCC)c2C)N=C1C.[Zn+2]
6. CCCCCCCCCCCCCCCCCC(=O)NC(CC(=O)OCCCCCC)c1ccc(N(CCCl)CCCl)cc1 (stereo unspecified)
7. O=C(O)C(Br)C(Br)C(=O)O.[Ag] (stereo unspecified)
8. Cc1cc(Cc2cc(C)c(NC(=O)C(=O)C3C(=O)NC(=S)NC3=O)c(C(C)C)c2)cc(C(C)C)c1NC(=O)C(=O)C1C(=O)NC(=S)NC1=O

**Result**
1: 99; 2: 44.6; 3: 26.9; 4: 85.2; 5: 99.4; 6: -3.9; 7: 98.8; 8: 8.55

====

- PROTOCOL TEXT: NCI Yeast Anticancer Drug Screen. Data for the mlh1 rad18 strain (AID 175)
- ASSAY SETUP: S. cerevisiae mlh1 rad18 strain growth inhibition; at 50.0 µM
The panel holds about 79,000 compounds, 15% with a hit somewhere; the sample as a whole holds those more often. The source made the active and inactive calls. Rule as the data show it: active = growth inhibition above about 70%; inactive = the rest.
Outcome (select one): active, inactive

O=P(N1CCOCC1)(N1CC1)N1CC1    inactive

**Query** Outcome? `CCc1c[c]([Hg][Cl])c(CC)c(CC)c1CC`
**Result** active

**Query** Outcome? `CC(Br)([N+](=O)[O-])[N+](=O)[O-]`
**Result** inactive

**Query** Outcome? `COc1cc([N+](=O)[O-])ccc1[As](=O)(O)O`
**Result** inactive

**Query** Outcome? `Cc1cc(NC(=O)CCc2ccc(N3C(N)=NC(N)=NC3(C)C)cc2Cl)ccc1S(=O)(=O)F`
**Result** active

**Query** Outcome? CC(C(=O)O)C(Br)C(=O)O (stereo not given)
**Result** inactive

**Query** Outcome? `CCC(=O)c1ccc(C)cc1`
**Result** inactive

**Query** Outcome? `C(=NC1CCCCC1)c1c[nH]c2ccccc12`
**Result** inactive

**Query** Outcome? COC1CC(OC2C(C)OC(OC3C(C)OC(OC4CCC5(C)C(=CCC6(O)C5CC(OC(=O)c5ccc(O)cc5)C5(C)C(O)(C(C)=O)CCC65O)C4)CC3OC)CC2OC)OC(C)C1O (stereo not given) (tested in a mixture with another compound)
**Result** inactive

**Query** Outcome? C=CCC1(OC(C)=O)CCC2C3CCC4CC=CCC4(C)C3CCC21C (stereo not given)
**Result** inactive

====

- PROTOCOL TEXT: NCI Yeast Anticancer Drug Screen. Data for the mlh1 rad18 strain (AID 175)
- ASSAY SETUP: S. cerevisiae mlh1 rad18 strain growth inhibition; at 50.0 µM
Compounds without any hit were thinned out: in the full panel of roughly 79,000, 15% have a hit. Calls of active or inactive are those of the source. Cut-off read from the data, not from the text of the source: active = growth inhibition above about 70%; inactive = the rest.
Outcome (select one): active, inactive

The following molecules have reported results that may help.
COC12C(COC(N)=O)C3=C(C(=O)C(C)=C(N)C3=O)N1CC1C2N1C (stereo not drawn)    active
Cc1ccc([NH-])cc1C.Cc1ccc([NH-])cc1C.[Cl][Pt+2][Cl]    active
CN(C)CCNC(=O)c1cccc(COC(=O)Nc2ccc(N(CCCl)CCCl)cc2)c1[N+](=O)[O-]    inactive

**Query** Outcome? `Cc1ccc(N=P(c2ccccc2)(c2ccccc2)c2ccccc2)cc1.[Br][Hg][Br]`
**Result** active

**Query** Outcome? COc1ccc2c(c1)CC(CN1CCC3(CC1)C(=O)NCN3c1ccccc1)O2 (stereo not drawn)
**Result** active

**Query** Outcome? `COc1cc(CCN(C)C)c([N+](=O)[O-])cc1OC`
**Result** inactive

**Query** Outcome? `CCN1C2CCC1CC(=O)C2`
**Result** inactive

**Query** Outcome? `CC(=O)C(=O)c1ccccc1`
**Result** inactive

**Query** Outcome? `[Au+].[Au+].[Au+].[c-]1nccn1Cc1ccccc1.[c-]1nccn1Cc1ccccc1.[c-]1nccn1Cc1ccccc1`
**Result** active

**Query** Outcome? `CCOP(=O)(OCC)OCC`
**Result** inactive

**Query** Outcome? `NCCN.O=N[O-].O=N[O-].O=N[O-].O=N[O-].[Co+3].[K+]`
**Result** inactive

**Query** Outcome? OC1CC([CH2][Hg][I])OC([CH2][Hg][I])C1 (stereo not drawn)
**Result** active

**Query** Outcome? `ClCCN(CCCl)c1ccc(C2=Nc3cccc4cccc(c34)N2)cc1`
**Result** inactive

**Query** Outcome? `CC[C@@]1(O)C(=O)OCc2c1cc1n(c2=O)Cc2cc3c(OC)cccc3nc2-1`
**Result** active

**Query** Outcome? O=[N+]([O-])c1ccc(C2C3C(c4ccccc4)=NCCCN32)cc1 (stereo not drawn)
**Result** inactive

**Query** Outcome? `COc1ccc([As](O[As](c2ccc(OC)cc2)c2ccc(OC)cc2)c2ccc(OC)cc2)cc1`
**Result** active

**Query** Outcome? `CC(=O)[O-].CC(=O)[O-].CC(=O)[O-].CC(=O)[O-].[Mo+2].[Mo+2]`
**Result** inactive

**Query** Outcome? `CC(C)(C)C(=O)CC(=O)C(C)(C)C.[Cl][Sb]1([Cl])[c]2ccccc2Cc2cccc[c]21`
**Result** inactive

**Query** Outcome? `O=S(O)O.O=S(O)O.[Co].[NH2-].[NH2-].[NH2-].[NH2-]`
**Result** inactive

**Query** Outcome? `O=CNc1ccc(Cl)cc1C(=O)c1ccccc1`
**Result** inactive

====

- PROTOCOL TEXT: NCI Yeast Anticancer Drug Screen. Data for the bub3 strain (AID 167)
- ASSAY SETUP: S. cerevisiae bub3 mutant strain, at 50.0 µM, hits give high values
The panel holds about 79,000 compounds, 15% with a hit somewhere; the sample as a whole holds those more often.
ENDPOINT NAME: growth inhibition (%)
Numbers only, in %.

CCCCCCCCOC(=O)c1ccccc1C(=O)OCCCCCCCC    -3.95
c1ccc(C[n+]2ccc(-c3ccccc3)cc2)cc1    -7.15
O=C(OCC(CCl)OC(=O)C(Cl)(Cl)Cl)C(Cl)(Cl)Cl (centres undefined)    55.3
CCCCC(CC)COP(OCC(CC)CCCC)OCC(CC)CCCC.[Cl][Sn][Cl] (centres undefined)    -6.2

Batch lookup, growth inhibition per entry.
1. S=c1[nH]c2ccccc2[nH]1.[Zn+2]
2. C[CH2][Sn](/[CH]=C/C=C/OC)([CH2]C)[CH2]C

**Result**
-21.4
83.4

Batch lookup, growth inhibition per entry.
1. CCCC(C)C1(C)C(=O)NC(=O)N(C)C1=O (centres undefined)
2. O=c1cccc2n1CC1CNC[C@H]2C1
3. CCN(CC)C(=O)CCN1CC1

**Result**
1. 1.05
2. 12.6
3. 5.1

Batch lookup, growth inhibition per entry.
1. CCOP(=O)(CCC[N+](=O)[O-])OCC
2. CCOC(=O)C[CH2][Sn]([Cl])([Cl])[Cl]

**Result**
1.35
4.3
